Numbers sourced from PubChem BioAssay (NCI).

Tested on: MDA-MB-231 breast
Run Description: NCI-60 one-dose screen, 48 h (100 = growth as untreated, 0 = no growth, -100 = all killed)
Stated Conditions: 10 µM unless noted
This is part of a sample that, as a whole, favours compounds with a hit. Of some 83,000 tested, about 20% had one in any assay.
Quick rule: growth of at least 70% means t, below that means f.

{"Compound": "COC(=O)[C@]12CC[C@@H](C(C)=O)[C@@H]1[C@H]1CC[C@@H]3[C@@]4(C)C/C(=C/c5cccnc5)C(=O)C(C)(C)[C@@H]4CC[C@@]3(C)[C@]1(C)CC2", "Measured On": "MDA-MB-231 breast", "Answer Label": "t"}
{"Compound": "COc1ccc(C2C(C#N)=C(N)Oc3c2sc2c(F)cccc32)cc1 (stereo not drawn)", "Measured On": "MDA-MB-231 breast", "Answer Label": "f"}
{"Compound": "N#CCCCCCn1c2ccccc2c2c3c(c4c5ccccc5n(CCCCCC#N)c4c21)C(=O)N(O)C3=O", "Measured On": "MDA-MB-231 breast", "Answer Label": "f"}
{"Compound": "COc1ccc(-c2nc3ncccn3c2-c2nc3ccc(Br)cc3[nH]2)cc1", "Measured On": "MDA-MB-231 breast", "Answer Label": "t"}
{"Compound": "N#CC1=C(N)Oc2c(c(N)nn2-c2ccccc2)C1c1ccc(Cl)cc1 (stereo not drawn)", "Measured On": "MDA-MB-231 breast", "Answer Label": "t"}
{"Compound": "C=C(C)[C@@H]1CC[C@]2(C)[C@H](CC=C3[C@@H]4CC(C)(C)CC[C@]4(C(=O)OC)CC[C@]32C)[C@@]1(C)CC/C(N)=N/O", "Measured On": "MDA-MB-231 breast", "Answer Label": "f"}

Hello, I need to know if `CCN1CCN(C(=O)[C@]23CCC(C)(C)C[C@H]2C2=CC[C@@H]4[C@@]5(C)CC/C(=N/O)C(C)(C)[C@@H]5CC[C@@]4(C)[C@]2(C)CC3)CC1` has measured growth not below 70%. Thanks!
f

Hello, I need to know if `C=C1C(=O)O[C@H]2[C@H]1CC/C(COC(=O)NCc1c[nH]c3ccccc13)=C\CC[C@@]1(C)O[C@@H]21` has measured growth not below 70%. Thanks!
f
